Parameter CC50: see the listing below.
Experiment: viability of uninfected HEp-2 cells – cell-based, HTS, cytotoxicity control for RSV inhibitor project, dose response (AID 2410)
Format: functional
Details: human respiratory syncytial virus
Activity calls are given as the source filed them.
PROPERTY_LABEL: CC50

[
  {
    "MOLECULE": "C/C=C/c1ccc(OCC(=O)NCc2ccccc2OC)c(OC)c1",
    "PROPERTY_LABEL": "CC50",
    "MEASUREMENT": "40.4 µM (active)"
  },
  {
    "MOLECULE": "CCOC(=O)N1CCN(c2nc(-c3cccs3)nc3ccccc23)CC1",
    "PROPERTY_LABEL": "CC50",
    "MEASUREMENT": "> 50 µM (active)"
  },
  {
    "MOLECULE": "CCc1nn(C(C)C(=O)N2CCN(c3ccccc3)CC2)c(=O)c2cc3occc3n12 (stereo unspecified)",
    "PROPERTY_LABEL": "CC50",
    "MEASUREMENT": "20.4 µM (active)"
  },
  {
    "MOLECULE": "COc1ccccc1NC(=O)Nc1nc(C(C)(C)C)cs1",
    "PROPERTY_LABEL": "CC50",
    "MEASUREMENT": "> 50 µM (active)"
  },
  {
    "MOLECULE": "COc1ccc([C@H]2CC(=O)C=C(c3ccc(Cl)c(C(F)(F)F)c3)C2)cc1",
    "PROPERTY_LABEL": "CC50",
    "MEASUREMENT": "12.9 µM (active)"
  },
  {
    "MOLECULE": "COc1cc2c(cc1OC)C1(Nc3c-2c(Cc2ccccc2)nn3-c2ccccc2)C(=O)Nc2ccccc21 (stereo unspecified)",
    "PROPERTY_LABEL": "CC50",
    "MEASUREMENT": "> 50 µM (active)"
  }
]

====

Quick reference for AC50 among some compounds
Molecular target: Microphthalmia-associated transcription factor (Homo sapiens, UniProt O75030)
Sequence (O75030 whole entry): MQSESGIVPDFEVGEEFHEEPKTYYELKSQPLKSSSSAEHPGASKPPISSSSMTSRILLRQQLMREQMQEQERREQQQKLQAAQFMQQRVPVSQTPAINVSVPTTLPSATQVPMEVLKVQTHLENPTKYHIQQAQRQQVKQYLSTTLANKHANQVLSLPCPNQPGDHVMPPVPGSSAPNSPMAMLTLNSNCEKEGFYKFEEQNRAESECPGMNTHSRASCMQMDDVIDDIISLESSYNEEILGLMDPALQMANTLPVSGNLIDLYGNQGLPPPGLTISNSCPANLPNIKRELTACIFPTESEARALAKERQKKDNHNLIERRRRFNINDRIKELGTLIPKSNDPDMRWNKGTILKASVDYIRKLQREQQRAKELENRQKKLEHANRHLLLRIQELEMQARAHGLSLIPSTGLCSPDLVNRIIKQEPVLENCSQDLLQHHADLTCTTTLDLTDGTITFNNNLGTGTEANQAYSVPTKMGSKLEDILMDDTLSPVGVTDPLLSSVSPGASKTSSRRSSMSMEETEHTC
Assay: reducers of TRPM1 reporter luminescence, concentration series – cell-based, SK-MEL-5, cherry-picked, set 3, MITF inhibitor project, dose response (AID 493073);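 note: SK-MEL-5 melanoma cells with luciferase driven by the MITF target TRPM1 promoter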
Assay type: functional
Activity calls are given as the source filed them.
PROPERTY_LABEL: AC50

[
  {
    "COMPOUND": "CC(C)CC(=O)/C=C/n1c(=S)oc2ccccc21",
    "MEASUREMENT": "10.5 µM (active)"
  },
  {
    "COMPOUND": "CC(C)n1c(O)c(C2c3cc(Cl)ccc3Oc3[nH]c(=O)n(C(C)C)c(=O)c32)c(=O)[nH]c1=O (stereo unspecified)",
    "MEASUREMENT": "5.39 µM (active)"
  },
  {
    "COMPOUND": "O=C(Cn1ncc(Cl)c(Cl)c1=O)N1CCOCC1",
    "MEASUREMENT": "9.82 µM (active)"
  },
  {
    "COMPOUND": "CCOC(=O)c1c(C)oc2c(F)c(F)c(F)c(F)c2c1=O",
    "MEASUREMENT": "2.32 µM (active)"
  },
  {
    "COMPOUND": "O=C(N/N=C/c1ccc([N+](=O)[O-])o1)c1cc2ccccc2o1",
    "MEASUREMENT": "5.99 µM (active)"
  },
  {
    "COMPOUND": "Nc1nnnn1/N=C/C(Br)=C/c1ccccc1",
    "MEASUREMENT": "5.44 µM (active)"
  }
]

====

Each item that follows carries a reported EC50.
Test: Luminescence Cell-Based Dose Response HTS to Identify Inhibitors of 5'UTR Stem-Loop Driven Prion Protein mRNA Translation in H4 Neuroglioblastoma Cells. [Related pubchem assays: 1827 (Project Summary), 1813 (Primary HTS)]
Type: functional
Activity calls are given as the source filed them.

[
  {
    "CHEMICAL_STRING": "Nc1c(C(=O)NCc2ccc3c(c2)OCO3)nnn1CC(=O)Nc1ccc(Br)cc1",
    "EC50": "> 120 µM (not active)"
  },
  {
    "CHEMICAL_STRING": "CCOc1ccc(-c2nc(N)ncc2Oc2cccc(OC)c2)c(O)c1",
    "EC50": "16.4 µM (active)"
  },
  {
    "CHEMICAL_STRING": "Cc1nn(C(C)(C)C)c(C)c1/C=N/OC(=O)Nc1ccc(Cl)cc1",
    "EC50": "< 0.1 µM (active)"
  },
  {
    "CHEMICAL_STRING": "O=C(N/N=C/c1ccc([N+](=O)[O-])o1)c1cc2ccccc2o1",
    "EC50": "> 60 µM (not active)"
  },
  {
    "CHEMICAL_STRING": "Cc1cccc(NCCC#N)c1",
    "EC50": "> 120 µM (not active)"
  }
]

====

Molecular target: UniProt:P38532
Sequence (P38532 whole entry): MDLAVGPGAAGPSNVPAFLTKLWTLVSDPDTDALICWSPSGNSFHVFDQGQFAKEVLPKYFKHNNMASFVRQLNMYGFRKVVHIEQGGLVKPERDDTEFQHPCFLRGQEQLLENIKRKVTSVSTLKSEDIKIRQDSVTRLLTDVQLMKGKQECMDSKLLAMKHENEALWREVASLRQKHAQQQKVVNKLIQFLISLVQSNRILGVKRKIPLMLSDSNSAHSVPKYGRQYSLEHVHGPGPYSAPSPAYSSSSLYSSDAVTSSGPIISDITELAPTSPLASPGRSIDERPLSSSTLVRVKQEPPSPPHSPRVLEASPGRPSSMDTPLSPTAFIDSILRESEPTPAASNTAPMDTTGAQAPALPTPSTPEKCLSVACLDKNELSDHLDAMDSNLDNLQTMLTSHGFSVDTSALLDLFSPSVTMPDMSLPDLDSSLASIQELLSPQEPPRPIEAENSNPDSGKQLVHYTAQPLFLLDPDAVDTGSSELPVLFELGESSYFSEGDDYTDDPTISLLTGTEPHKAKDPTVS
Test: enhancement of HSF1-driven luciferase signal – cell-based, NIH3T3, luminescence, dose retest, confirmation (AID 435004);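 note: stress induced by proteasome inhibitor MG132 added 30 min after compound; luciferase reporter driven by HSF1 response element in NIH3T3 cells; actives raise luminescence as potentiators of the MG132 stress response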
Assay type: functional
The source made the active and inactive calls.
Labels: class 1 for active, class 0 for inactive

[
  {
    "MOLECULE": "O=c1oc2ccccc2c(NC2CCCCC2)c1NS(=O)(=O)c1ccc(Cl)cc1",
    "CATEGORY_LABEL": "class 1"
  },
  {
    "MOLECULE": "Cc1ccc(-n2nc3c(=O)n(C(C)C(=O)NCc4ccccc4Cl)nc(C)c3c2C)cc1 (stereo unspecified)",
    "CATEGORY_LABEL": "class 0"
  },
  {
    "MOLECULE": "N#CCCn1cc(C=C(C#N)C#N)c(-c2ccc(-c3ccccc3)cc2)n1",
    "CATEGORY_LABEL": "class 1"
  },
  {
    "MOLECULE": "ClC(Cl)(Cl)c1nc2ccccc2n2nncc12",
    "CATEGORY_LABEL": "class 1"
  },
  {
    "MOLECULE": "CCOC(=O)c1sc2nc(CC(=O)OC)nc(NCc3ccco3)c2c1C",
    "CATEGORY_LABEL": "class 1"
  }
]

====

Molecular target: Cytochrome P450 3A4 (Homo sapiens, UniProt P08684);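 note: CYP3A4 tested as one member of a cytochrome P450 panel screen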
Sequence (P08684 whole entry): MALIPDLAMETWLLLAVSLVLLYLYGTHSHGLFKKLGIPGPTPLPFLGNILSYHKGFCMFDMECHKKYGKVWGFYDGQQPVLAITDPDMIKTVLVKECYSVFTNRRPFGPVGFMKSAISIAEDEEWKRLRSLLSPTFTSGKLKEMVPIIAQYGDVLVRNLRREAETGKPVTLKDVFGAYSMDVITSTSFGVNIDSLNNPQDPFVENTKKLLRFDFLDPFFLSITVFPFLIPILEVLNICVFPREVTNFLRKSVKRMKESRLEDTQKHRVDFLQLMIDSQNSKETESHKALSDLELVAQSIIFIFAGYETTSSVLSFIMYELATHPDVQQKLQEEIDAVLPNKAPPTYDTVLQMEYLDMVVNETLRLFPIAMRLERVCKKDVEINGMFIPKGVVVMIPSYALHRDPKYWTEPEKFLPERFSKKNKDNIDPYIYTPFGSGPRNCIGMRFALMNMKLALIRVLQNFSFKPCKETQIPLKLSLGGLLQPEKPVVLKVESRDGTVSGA
The following compounds are listed with their measured AC50 values.

[
  {
    "CHEMICAL_STRING": "COc1ccc2c3c([nH]c2c1)C(C)=NCC3",
    "SYSTEM_TESTED": "Cytochrome P450 3A4 (Homo sapiens, UniProt P08684)",
    "AC50": "2.51 µM (inconclusive)"
  },
  {
    "CHEMICAL_STRING": "CC(C)(C)NS(=O)(=O)c1ccc(NS(=O)(=O)c2ccc(F)cc2)cc1",
    "SYSTEM_TESTED": "Cytochrome P450 3A4 (Homo sapiens, UniProt P08684)",
    "AC50": "15.8 µM (inconclusive)"
  },
  {
    "CHEMICAL_STRING": "COc1cccc(-c2cncnc2NCCN2CCOCC2)c1",
    "SYSTEM_TESTED": "Cytochrome P450 3A4 (Homo sapiens, UniProt P08684)",
    "AC50": "3.16 µM (inconclusive)"
  },
  {
    "CHEMICAL_STRING": "Cc1ccc(S(=O)(=O)O[C@H]2C[C@@H](C(C)(C)C)CC[C@@H]2c2ccccc2)cc1",
    "SYSTEM_TESTED": "Cytochrome P450 3A4 (Homo sapiens, UniProt P08684)",
    "AC50": "2 µM (inconclusive)"
  },
  {
    "CHEMICAL_STRING": "S=C(Nc1ccc2c(c1)Cc1ccccc1-2)Nc1ccc2c(c1)Cc1ccccc1-2",
    "SYSTEM_TESTED": "Cytochrome P450 3A4 (Homo sapiens, UniProt P08684)",
    "AC50": "3.98 µM (inconclusive)"
  },
  {
    "CHEMICAL_STRING": "Cc1ccc(SCc2ccc(C(=O)Nc3cc([N+](=O)[O-])ccc3C)cc2)cc1",
    "SYSTEM_TESTED": "Cytochrome P450 3A4 (Homo sapiens, UniProt P08684)",
    "AC50": "8.91 µM (inconclusive)"
  },
  {
    "CHEMICAL_STRING": "O=C(NCCCN1CCc2ccccc2C1)C1CCN(S(=O)(=O)N2CCCC2)CC1",
    "SYSTEM_TESTED": "Cytochrome P450 3A4 (Homo sapiens, UniProt P08684)",
    "AC50": "20 µM (inconclusive)"
  },
  {
    "CHEMICAL_STRING": "O=C(O)CCC(=O)N1CCN(c2ccccn2)CC1",
    "SYSTEM_TESTED": "Cytochrome P450 3A4 (Homo sapiens, UniProt P08684)",
    "AC50": "3.55 µM (inconclusive)"
  },
  {
    "CHEMICAL_STRING": "CCOC(=O)c1c(-c2ccccc2)cn2ccccc12",
    "SYSTEM_TESTED": "Cytochrome P450 3A4 (Homo sapiens, UniProt P08684)",
    "AC50": "12.6 µM (inconclusive)"
  },
  {
    "CHEMICAL_STRING": "O=C(c1cc(-c2ccccc2)nc2ccccc12)N1CCC2(CC1)OCCO2",
    "SYSTEM_TESTED": "Cytochrome P450 3A4 (Homo sapiens, UniProt P08684)",
    "AC50": "25.1 µM (inconclusive)"
  },
  {
    "CHEMICAL_STRING": "Cc1noc(C)c1-c1ccc2ncnc(Nc3ccc(F)cc3)c2c1",
    "SYSTEM_TESTED": "Cytochrome P450 3A4 (Homo sapiens, UniProt P08684)",
    "AC50": "15.8 µM (inconclusive)"
  }
]
